molecular target: HIV-1 PR (Human immunodeficiency virus type 1 group M subtype B); construct: HIV-1 protease enzyme was purchased from Bachem Bioscience Inc; purchased Bachem Bioscience Inc; experiment: HIV-1 protease direct enzyme assay (fluorogenic peptide substrate); type: biochemical; conditions: read-out: IC50 HIV-1 PR
Measurement Name: IC50 (µM)
Report the value in µM with no unit label.

Q: State its IC50 for this compound: CCCCCCCCCCCCCC=CCCC=CC(O)C(CO)NC(=O)CCCCCCCCCCC (stereo not shown) [Compound 8]
A: 4.8

Q: # return recorded IC50 for input CCCCCCCCCCCCCCCCOC[C@@H](O)CO [Compound 6, (S)-chimyl alcohol]
A: 26.6

Q: Name the recorded IC50 of the compound listed here: CC1=CCCC(C)=CCC(O)(C(C)C)CCC(C)=CCC1 (stereo not shown) [Compound 1, sarcophytol M]
A: 15.7

Q: Specify reported IC50 for the compound shown: C=C1CCC(C(C)C)=CC2C1CCC2(C)O (stereo not shown) [Compound 2, alismol]
A: 7.2

* * *

Task for the reader: assign each of the following compounds its reported pIC50.
tested on: HeLa cells; test: XTT cytotoxicity assay in HeLa cells; conditions: read-out: Cytotoxicity IC50 HeLa; XTT, 72 h incubation
Answer as the number alone; pIC50 is minus log10 of concentration in mol/L.

Q: Please indicate pIC50 recorded for CCCCCCCCCCCCCC=CCCC=CC(O)C(CO)NC(=O)CCCCCCCCCCC (centres unmarked)
A: 4.42

Q: State its pIC50 for this compound: C=C(CCC(C)C1CCC2C3C(OC(C)=O)C=C4CC(O)CCC4(CO)C3CCC12C)C(C)C (centres unmarked)
A: 5.28

* * *

assay: XTT cytotoxicity assay in HeLa cells; conditions: human, HeLa cells, Cytotoxicity IC50 HeLa, XTT
Please respond with reported IC50 at 72 h for every item in the list.
Value expressed in µg/mL; do not type the unit.

Q: Find the measured IC50 at 72 h of CC1=CCCC(C)=CCC(O)(C(C)C)CCC(C)=CCC1 (centres unmarked) [Compound 1, sarcophytol M] and report it.
A: 8.1

Q: Supply measured IC50 at 72 h of C=C(CCC(C)C1CCC2C3C(OC(C)=O)C=C4CC(O)CCC4(CO)C3CCC12C)C(C)C (centres unmarked) [Compound 7] in your reply.
A: 4.3

* * *

assay: XTT cytotoxicity assay in HeLa cells; conditions: human, HeLa cells, Cytotoxicity IC50 HeLa, XTT, 72 h incubation
Rule: measured IC50 at 72 h below 40 µM gets yes; anything equal to or greater than 40 µM gets no.

Q: # strict comparison: is reported IC50 at 72 h < 40 µM? input = C=C1CCC(C(C)C)=CC2C1CCC2(C)O (centres unmarked) [Compound 2, alismol]
A: yes

Q: Hello, I'm reviewing records and need to know if IC50 at 72 h of CC(C)C1=C[C@H]2[C@@H](CC[C@]2(C)O)[C@](C)(O)CC1 [Compound 5, alismoxide] is below 40 µM. Could you check?
A: no

Q: Dear colleague, could you confirm whether IC50 at 72 h of C=C(CC[C@@H](C)[C@H]1CCC2C3CC=C4C[C@@H](O)CC[C@]4(C)C3CC[C@@]21C)C(C)C (stereo partly drawn) [Compound 3, 24-methylcholesta-5,24(28)-diene-3β-ol] falls below 40 µM? Thanks.
A: no

Q: In plain terms, does CCCCCCCCCCCCCCCCOC[C@@H](O)CO [Compound 6, (S)-chimyl alcohol] come in under 40 µM for IC50 at 72 h?
A: yes

Q: Given the entry C=C(CCC(C)C1CCC2C3C(OC(C)=O)C=C4CC(O)CCC4(CO)C3CCC12C)C(C)C (centres unmarked) [Compound 7] , would its reported IC50 at 72 h be below 40 µM?
A: yes

Q: hey, is IC50 at 72 h for CO[C@]1(C)CCC(C(C)C)=C[C@H]2[C@H]1CC[C@]2(C)O [Compound 4, 10-O-methyl alismoxide] lower than 40 µM or not?
A: yes

Q: A record lists CC1=CCCC(C)=CCC(O)(C(C)C)CCC(C)=CCC1 (centres unmarked) [Compound 1, sarcophytol M] . Is its IC50 at 72 h below 40 µM?
A: yes

Q: Would you kindly verify if IC50 at 72 h of CCCCCCCCCCCCCC=CCCC=CC(O)C(CO)NC(=O)CCCCCCCCCCC (centres unmarked) [Compound 8] is strictly less than 40 µM?
A: no

* * *

biological target: HIV-1 PR (Human immunodeficiency virus type 1 group M subtype B, UniProt P04585); construct: HIV-1 protease enzyme was purchased from Bachem Bioscience Inc; purchased Bachem Bioscience Inc; test: HIV-1 protease direct enzyme assay (fluorogenic peptide substrate); format: biochemical
Measurement Name: IC50 (µM)
Your answer is read as µM, so omit the unit and give the number.

Q: Specify measured IC50 for C=C(CCC(C)C1CCC2C3C(OC(C)=O)C=C4CC(O)CCC4(CO)C3CCC12C)C(C)C (stereo not shown) .
A: 4.85

* * *

experiment: XTT cytotoxicity assay in Vero cells; conditions: African green monkey, Vero cells
Lab note: cut-off is 50 µM. Strictly less in IC50 at 72 h is TRUE. Exactly 50 µM or more is FALSE.

Q: Is IC50 at 72 h strictly under 50 µM for the entry CCCCCCCCCCCCCC=CCCC=CC(O)C(CO)NC(=O)CCCCCCCCCCC (centres unmarked) ?
A: FALSE

Q: Decide: IC50 at 72 h of C=C(CC[C@@H](C)[C@H]1CCC2C3CC=C4C[C@@H](O)CC[C@]4(C)C3CC[C@@]21C)C(C)C (some centres unmarked) strictly below 50 µM?
A: FALSE

Q: Dear reviewer, please state whether C=C(CCC(C)C1CCC2C3C(OC(C)=O)C=C4CC(O)CCC4(CO)C3CCC12C)C(C)C (centres unmarked) has IC50 at 72 h strictly beneath 50 µM.
A: TRUE

Q: Does CC(C)C1=C[C@H]2[C@@H](CC[C@]2(C)O)[C@](C)(O)CC1 [Compound 5, alismoxide] have IC50 at 72 h strictly under 50 µM?
A: FALSE

Q: Given CC1=CCCC(C)=CCC(O)(C(C)C)CCC(C)=CCC1 (centres unmarked) , is recorded IC50 at 72 h strictly lower than 50 µM?
A: TRUE

Q: Problem: For the molecule CCCCCCCCCCCCCCCCOC[C@@H](O)CO [Compound 6, (S)-chimyl alcohol] , is IC50 at 72 h under 50 µM?
A: FALSE

* * *

test: XTT cytotoxicity assay in U937 cells; settings: human, U937 cells
Field: IC50 at 72 h. Provide a value for each of the compounds that follow.
Value expressed in µM; do not type the unit.

Q: Please supply the value of reported IC50 at 72 h for the item CC1=CCCC(C)=CCC(O)(C(C)C)CCC(C)=CCC1 (stereo not shown)
A: 31.7

Q: Give a short answer stating reported IC50 at 72 h for CO[C@]1(C)CCC(C(C)C)=C[C@H]2[C@H]1CC[C@]2(C)O [Compound 4, 10-O-methyl alismoxide] .
A: 50

* * *

Answer each item with its documented IC50 at 72 h.
assay: in vitro; settings: African green monkey
Starred links: 1 amine or outer side, 2 acyl side, 3 side chain; linkers in the order of their positions; H or OH if unused. Positions of bridges follow the written chain, without caps; N, C: chain ends. Non-standard residues stand in square brackets, D forms with d. Residues, ends and D or L forms follow the SMILES beside them. Chains are numbered I, II in the order given. Actinocin(9to1) = Cc1c2oc3c(C)ccc(C(=O)[*:1])c3nc-2c(C(=O)[*:2])c(N)c1=O; NMeV = CN[C@H](C(=O)O)C(C)C; Sar = CNCC(=O)O
Only the number, expressed in µM, is required.

Q: Consider the compound C=C(CC[C@@H](C)[C@H]1CCC2C3C(CC[C@@]21C)[C@@]1(CO)CC[C@H](O)CC1=C[C@@H]3O)C(C)C (some centres unmarked) and give its recorded IC50 at 72 h.
A: 11.4

Q: For the compound Cc1c2oc3c(C)ccc(C(=O)N[C@@H]4C(=O)N[C@H](C(C)C)C(=O)N5CCC[C@H]5C(=O)N(C)CC(=O)N(C)[C@@H](C(C)C)C(=O)O[C@@H]4C)c3nc-2c(C(=O)N[C@@H]2C(=O)N[C@H](C(C)C)C(=O)N3CCC[C@H]3C(=O)N(C)CC(=O)N(C)[C@@H](C(C)C)C(=O)O[C@@H]2C)c(N)c1=O [Actinomycin D, reference compound] (I: T[dV]P[Sar][NMeV] / II: T[dV]P[Sar][NMeV]; ester I:1-I:C, II:1-II:C; linker I:N-II:N via Actinocin(9to1)) , report IC50 at 72 h.
A: 8.8

* * *

target: HIV-1 PR (Human immunodeficiency virus type 1 group M subtype B); construct: HIV-1 protease enzyme was purchased from Bachem Bioscience Inc; purchased Bachem Bioscience Inc; experiment: HIV-1 protease direct enzyme assay (fluorogenic peptide substrate); type: biochemical; details: screened at 100 µg/mL
Kindly state inhibition at 100 µg/mL for each of the entries shown.
Field note: include the unit after the figure.

Q: Fill in inhibition at 100 µg/mL for record C=C1CCC(C(C)C)=CC2C1CCC2(C)O (centres unmarked)
A: 96.2%

Q: Indicate the recorded inhibition at 100 µg/mL value for this compound: CC1=CCCC(C)=CCC(O)(C(C)C)CCC(C)=CCC1 (centres unmarked)
A: 100%

Q: Tell us which inhibition at 100 µg/mL value is on record for CCCCCCCCCCCCCC=CCCC=CC(O)C(CO)NC(=O)CCCCCCCCCCC (centres unmarked)
A: 100%

Q: Answer with the recorded inhibition at 100 µg/mL of C=C(CCC(C)C1CCC2C3C(OC(C)=O)C=C4CC(O)CCC4(CO)C3CCC12C)C(C)C (centres unmarked) only.
A: 71.5%

Q: Report measured inhibition at 100 µg/mL; entry is CCCCCCCCCCCCCCCCOC[C@@H](O)CO [Compound 6, (S)-chimyl alcohol]
A: 100%

meta.source: paper PMC3877894
